# key: entry, value: GI50
test system: UACC-62; experiment: NCI tumour cell line growth inhibition, 48 h
Active and inactive are the calls of the source. Cut-off read from the data, not from the text of the source: active = GI50 up to about 1.1 µM and inactive = higher.

>  <molecule>
CCN(CC)C(=O)CCNC(C)Cc1c[nH]c2ccccc12 (stereo not given)

>  <GI50>
> 100 µM (inactive)

$$$$
>  <molecule>
COc1ccc(C2=Nc3cc(C)c(C)cc3NC(c3ccccc3)C2)cc1 (stereo not given)

>  <GI50>
> 100 µM (inactive)

$$$$
>  <molecule>
Cn1cnnc1Sc1c([N+](=O)[O-])ncn1C

>  <GI50>
> 100 µM (inactive)

$$$$
>  <molecule>
C1=N\c2ccc(cc2)/N=C\c2ccc(cc2)OCc2cccc(n2)COc2ccc/1cc2

>  <GI50>
> 100 µM (inactive)

$$$$
>  <molecule>
C=C1c2nc3ccccc3n2C=C(c2ccc(C)cc2)N1c1ccccc1

>  <GI50>
2.86 µM (inactive)

$$$$
